# test_name: Inhibition of MERS-CoV 3CLpro using FAM-SAVLQ as substrate preincubated with enzyme for 1 hr followed by susbtrate addition and measured after 1 hr by FRET assay
# Parameters: species or system Middle East respiratory syndrome-related coronavirus
// values below are reported IC50
Just the number in nM, nothing appended.

Answered cases to consult:
# compound, IC50 / nM
rows = [
    ("CC(C)C[C@H](NC(=O)OCC(C)(O)c1cccc(Cl)c1)C(=O)N[C@H](C=O)C[C@@H]1CCNC1=O (mixture of isomers)", 120),
    ("[2H]C([2H])(OC(=O)N[C@@H](CC(C)C)C(=O)N[C@@H](C[C@@H]1CCNC1=O)C(O)S(=O)(=O)[O-])C(C)(C)Oc1cccc(Cl)c1.[Na+] (some centres not stated)", 70),
    ("CC(C)C[C@H](NC(=O)OCC(C)(C)S(=O)(=O)c1ccccc1)C(=O)N[C@@H](C[C@@H]1CCNC1=O)C(O)S(=O)(=O)O (some centres not stated)", 280),
    ("CC(C)C[C@H](NC(=O)OCC(C)(C)Oc1ccc(Cl)cc1)C(=O)N[C@@H](C[C@@H]1CCNC1=O)C(O)S(=O)(=O)O (some centres not stated)", 110),
    ("CC(C)C[C@H](NC(=O)OCC(C)(C)Oc1cccc(F)c1)C(=O)N[C@@H](C[C@@H]1CCNC1=O)C(O)S(=O)(=O)O (some centres not stated)", 40),
]

Request: Given `CC(C)C[C@H](NC(=O)OCc1ccccc1)C(=O)N[C@H](C=O)C[C@@H]1CCNC1=O` , state its recorded IC50.
Response: 280

Request: IC50 for `CC(C)C[C@H](NC(=O)OCC(C)(C)Sc1ccc(F)cc1)C(=O)N[C@H](C=O)C[C@@H]1CCNC1=O` ?
Response: 190
